Reported Percentage weight loss over control is given for each of the following compounds.
# Experiment: Effect on body weight, 28-day oral supplementation with exercise
# Format: in vivo, Swiss Albino mice
# Condition parameters: weight gain vs Exercise Control, 28 days

Compound structure string: CC(C)C[C@H](NC(=O)[C@@H](N)CC(C)C)C(=O)O
Percentage weight loss over control [%]: −15
--
Compound structure string: NC(=O)NCCC[C@H](N)C(=O)O
Percentage weight loss over control [%]: −9
--
Compound structure string: Cn1c(=O)[nH]c2ncn(C)c2c1=O
Percentage weight loss over control [%]: −18
--
Compound structure string: N=C(N)NCCC[C@H](N)C(=O)O
Percentage weight loss over control [%]: −7
